target: UniProtKB P22455; experiment: Inhibitory activity on kinase FGFR4 (Caliper mobility shift); type: biochemical; details: read-out: FGFR4 IC50
Sequence (P22455 22-802): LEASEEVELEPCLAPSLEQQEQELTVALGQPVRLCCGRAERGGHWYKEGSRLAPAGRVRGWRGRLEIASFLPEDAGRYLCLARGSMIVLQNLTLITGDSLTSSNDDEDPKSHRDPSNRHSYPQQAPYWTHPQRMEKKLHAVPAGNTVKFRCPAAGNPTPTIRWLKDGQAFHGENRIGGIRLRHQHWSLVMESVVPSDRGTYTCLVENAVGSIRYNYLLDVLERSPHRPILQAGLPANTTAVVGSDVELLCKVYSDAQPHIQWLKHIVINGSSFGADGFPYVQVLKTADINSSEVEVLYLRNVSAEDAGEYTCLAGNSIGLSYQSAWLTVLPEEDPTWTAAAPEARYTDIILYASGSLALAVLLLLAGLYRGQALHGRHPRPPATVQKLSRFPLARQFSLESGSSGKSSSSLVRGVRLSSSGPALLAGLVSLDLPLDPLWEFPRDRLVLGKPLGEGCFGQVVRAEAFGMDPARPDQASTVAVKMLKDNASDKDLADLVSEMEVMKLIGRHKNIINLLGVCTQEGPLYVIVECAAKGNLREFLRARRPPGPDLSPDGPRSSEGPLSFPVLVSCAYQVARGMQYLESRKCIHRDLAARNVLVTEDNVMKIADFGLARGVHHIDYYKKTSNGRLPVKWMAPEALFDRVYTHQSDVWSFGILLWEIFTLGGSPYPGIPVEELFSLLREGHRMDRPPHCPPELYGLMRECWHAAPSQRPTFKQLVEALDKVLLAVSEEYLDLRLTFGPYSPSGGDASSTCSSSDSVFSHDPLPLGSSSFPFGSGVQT
Listed compounds paired with reported IC50

compound smiles | result type | observed
C=CC(=O)N1CCN(CCCc2cn3c(n2)c(-c2c(Cl)c(OC)cc(OC)c2Cl)cc2cnc(NCCN4CCN(C)CC4)nc23)CC1 | IC50 | < 20 nM
C=CC(=O)N1CCN(CC(C)(C)Cc2cn3c(n2)c(-c2c(Cl)c(OC)cc(OC)c2Cl)cc2cnc(NC)nc23)CC1 | IC50 | 20 to 200 nM

Lab note: next compound to report on.
Endpoint output: IC50 of C=CC(=O)NCc1cccc(-c2cn3c(n2)c(-c2c(Cl)c(OC)cc(OC)c2Cl)cc2cnc(NC)nc23)c1 . Value? > 200 nM
